# Measured Target: HLA-A*0301 (human)
Quantity Name: binding affinity ratio (IC50 of standard peptide / IC50 of test peptide)

{"columns": ["Binder", "Quantitative Result"],
 "data": [
  ["GSGEPLIDVH (modifications not checked) [… (P. falciparum EXP, position 42)]", 0.0005],
  ["KGTGSGVSSK (modifications not checked) [… (P. falciparum EXP, position 27)]", 0.0005],
  ["IFNKESLAEK (modifications not checked) [… (P. falciparum EXP, position 15)]", 0.0005]
]}

src = patent US9266930
